assay: basal RPMI8226 viability, no added stimulus, profiling panel, cell-based, calcein-AM fluorescence, 48 h, PK04 Diversity Set (AID 1166); conditions: RPMI8226 myeloma viability, higher = more signal;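 also: cells grown under basal conditions without added stimulus; test concentration not given here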
The threshold is 0.04. Values of z-score beneath it are tagged met; values meeting or exceeding it are tagged not met.

[[record]]
molecule = "CC(C)C(CO)N1C(=O)[C@@H]2C3C(=O)OCCC/C=C\\[C@H]3OC23C=CCN(C(C)C)C(=O)[C@@H]13 (stereo not given in full)"
qualitative_label = "met"

[[record]]
molecule = "CN(C)CCCC[C@@H]1NC(=O)[C@@H]2C[C@H](C(=O)NCCCCCNC(=O)CS)[C@H](c3cccc(OCCO)c3)N2C1=O"
qualitative_label = "met"

[[record]]
molecule = "O=C1O[C@@H](c2ccccc2)[C@@H](c2ccccc2)N2[C@@H](c3ccc(OCCO)cc3)[C@]3(C(=O)Nc4ccc(C#CC5(O)CCCCCC5)cc43)[C@@H](C(=O)NC[C@H](O)c3ccccc3)[C@H]12"
qualitative_label = "not met"

[[record]]
molecule = "CC1CC/C=C\\[C@H]2OC34C=CCN(C(C)C)C(=O)[C@H]3N(C(CO)C(C)C)C(=O)[C@@H]4C2C(=O)O1 (stereo not given in full)"
qualitative_label = "not met"

[[record]]
molecule = "NCCCCCNC(=O)[C@H]1C[C@H]2C(=O)NCC(=O)N2[C@H]1c1ccc(O)cc1"
qualitative_label = "not met"

[[record]]
molecule = "CC(=O)NCCCC[C@@H]1NC(=O)[C@@H]2C[C@H](C(=O)O)[C@H](c3cccc(OCCO)c3)N2C1=O"
qualitative_label = "not met"

[[record]]
molecule = "C=C[C@H](OC)[C@@H](OC(=O)Nc1ccc(OC)cc1)c1ccc(OC)c(O)c1"
qualitative_label = "not met"

[[record]]
molecule = "C#CCN1C(C(=O)OCC)OC[C@H]1c1ccccc1 (stereo not given in full)"
qualitative_label = "met"

[[record]]
molecule = "Cc1ccc(S[C@]2(C(=O)NC3CC3)CC(=O)N(Cc3ccccc3C(F)(F)F)[C@@H]2c2ccc(CO)cc2I)cc1"
qualitative_label = "met"

[[record]]
molecule = "Cc1ccc(N2C(=O)c3ccccc3[C@](C)(C(=O)NCC(F)(F)F)[C@@H]2c2ccc(CO)cc2)nc1"
qualitative_label = "met"

[[record]]
molecule = "COc1ccc(C#Cc2ccc3c(c2)[C@]2(C(=O)N3)[C@H](c3ccc(O)cc3)N3[C@H](c4ccccc4)[C@H](c4ccccc4)OC(=O)[C@H]3[C@@H]2C(=O)N2CCN(c3ncccn3)CC2)cc1"
qualitative_label = "met"

[[record]]
molecule = "C[N+](C)(C)CCCC[C@@H]1NC(=O)[C@H]2C[C@@H](C(=O)NCCCCCN)[C@@H](c3cccc(OCCO)c3)N2C1=O"
qualitative_label = "met"

[[record]]
molecule = "C=C(C(=O)CC[C@H](OC(C)=O)c1ccc(CO)o1)C(C)C"
qualitative_label = "met"

[[record]]
molecule = "CC(C)[Si](C#C[Si](C(C)C)(C(C)C)C(C)C)(O[C@H](C)c1cn([C@H](C)c2ccccc2)nn1)C(C)C"
qualitative_label = "not met"

